meta.source: ChEMBL document CHEMBL4513216

assay: Toxicity liver stage against HepG2, at 10uM; format: cell-based; parameters: test concentration 10 uM, cell line HepG2-A16-CD81EGFP; details: human, HepG2-A16-CD81EGFP cells; read-out: INHIBITION
assay-metric: cytotoxicity at 10 µM (%)
The reply should contain only the number, in %.

Some entries whose results are on file:
compound: Cc1nccc([C@H]2C[C@@H]3CCN(S(=O)(=O)N(C)C)C[C@H]3O2)n1
assay-metric: cytotoxicity at 10 µM
measured-value: -10.8
--
compound: Cn1c(=O)n(C)c2nc(Cl)c(CC(=O)c3ccccc3)n2c1=O
assay-metric: cytotoxicity at 10 µM
measured-value: -13.9
--
compound: CCCc1ccc2oc(C(=O)N3CCC(O)CC3)c(C)c2c1
assay-metric: cytotoxicity at 10 µM
measured-value: 0.361
--
compound: O=S(=O)(c1c(Cl)nc2sccn12)N1CCCC2(CCNC2)C1 (stereo unspecified)
assay-metric: cytotoxicity at 10 µM
measured-value: 8.64
--
compound: CCCn1ccnc1CN1C[C@@H](NC(C)=O)[C@H](c2ccc(OC)cc2)C1
assay-metric: cytotoxicity at 10 µM
measured-value: 0.344
--
compound: CCCOCC(=O)Nc1ncc(I)cc1C
assay-metric: cytotoxicity at 10 µM
measured-value: 1.46

Now examine the next entry.
Kindly note the recorded cytotoxicity at 10 µM for CN(Cc1cnn(C)c1)C(=O)CN1CCCC1Cn1cncn1 (stereo unspecified) , which is 12.6
